test system: RMS13 cells; assay: Cytotoxicity CellTiter-Glo; format: cell-based, human; conditions: read-out: IC50 (50% growth inhibition); RMS13, Rhabdomyosarcoma; 72 hours
assay metric: IC50 (nM)
One number for each entry, in nM.

Query block: Need IC50 of N.N.[Cl][Pt][Cl] [Cisplatin, cisplatin, reference compound] , thanks.
Result block: 2500

----------
system: HeLa R1-11 (SLC19A1)
assay metric: IC50 (nM)
Numbers only, in nM.

Query block: Endpoint output: IC50 of CN(Cc1cnc2nc(N)nc(N)c2n1)c1ccc(C(=O)NC(CCC(=O)O)C(=O)O)cc1.[Cl][Pt][Cl] (stereo not shown) [SM-69B] . Value?
Result block: 109

----------
tested on: SNB75 cells; assay: Cytotoxicity CellTiter-Glo; type: cell-based, human; conditions: read-out: IC50 ± S.D. (50% growth inhibition); SNB75, Brain - High grade; two independent experiments
assay metric: IC50
Be sure to follow the number with its unit.

Query block: May I ask what IC50 has been recorded for CN(Cc1cnc2nc(N)nc(N)c2n1)c1ccc(C(=O)NC(CCC(=O)O)C(=O)O)cc1.[Cl][Pt][Cl] (stereo not shown) [SM-69B] ?
Result block: 11.1 µM

----------
tested on: T98G cells; assay: Cytotoxicity CellTiter-Glo; assay type: cell-based, human; details: read-out: IC50 ± S.D. (50% growth inhibition), Brain - High grade, + 1 mM Folic Acid
assay metric: pIC50
One number for each entry, as −log10 of the molar value.

Query block: Consider the molecule CN(Cc1cnc2nc(N)nc(N)c2n1)c1ccc(C(=O)NC(CCC(=O)O)C(=O)O)cc1.[Cl][Pt][Cl] (stereo not shown) [SM-69B] and give its measured pIC50.
Result block: 5.28

----------
tested on: A2780-CP cells; experiment: Cytotoxicity CellTiter-Glo; assay type: cell-based, human; details: read-out: IC50 (50% growth inhibition), Ovary, 72 hours
assay metric: IC50 (µM)
Numbers only, in µM.

Query block: Given the molecule N.N.[Cl][Pt][Cl] [Cisplatin, cisplatin, reference compound] , what is its reported IC50?
Result block: 8.6

----------
system: SNB75 cells; assay: Cytotoxicity CellTiter-Glo; format: cell-based, human; details: read-out: IC50 (50% growth inhibition); SNB75, Brain; 72 hours
assay metric: pIC50
Numbers only, as −log10 of the molar value.

Query block: Give its pIC50 value. Item: N.N.[Cl][Pt][Cl] [Cisplatin, cisplatin, reference compound]
Result block: 4.81

----------
tested on: HeLa R1-11 (SLC46A1)
assay metric: IC50 (nM)
Numbers only, in nM.

Query block: Request the reported IC50 associated with CN(Cc1cnc2nc(N)nc(N)c2n1)c1ccc(C(=O)NC(CCC(=O)O)C(=O)O)cc1.[Cl][Pt][Cl] (stereo not shown) [SM-69B]
Result block: 702

----------
test system: A673 cells; experiment: Cytotoxicity CellTiter-Glo; format: cell-based, human; conditions: read-out: IC50 (50% growth inhibition); A673, Ewing's Sarcoma; 72 hours
assay metric: IC50
Dear colleague, please send the value followed by its unit.

Query block: Dear colleague, I am looking for the recorded IC50 of the following molecule: N.N.[Cl][Pt][Cl] [Cisplatin, cisplatin, reference compound]
Result block: 400 nM
